molecular target: T1, His-tagged, full-length PCSK9 (human, UniProt Q8NBP7 31-692); assay: TR-FRET competition (PCSK9/EGF(A) assay); competitor EGF(A)-Fc;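 also: proximity signal from anti-His APC on PCSK9 paired with anti-Fc europium on the Fc ligand, read as normalized TR-FRET ratio across compound dilutions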
T1 construct: secreted PCSK9 is autocatalytically cleaved into prodomain and catalytic domain + CRD (from S153), which stay associated; also called His-PCSK9; proprotein convertase subtilisin/kexin type 9; not shown: His tag
T1 sequence (Q8NBP7 31-692 limits assumed): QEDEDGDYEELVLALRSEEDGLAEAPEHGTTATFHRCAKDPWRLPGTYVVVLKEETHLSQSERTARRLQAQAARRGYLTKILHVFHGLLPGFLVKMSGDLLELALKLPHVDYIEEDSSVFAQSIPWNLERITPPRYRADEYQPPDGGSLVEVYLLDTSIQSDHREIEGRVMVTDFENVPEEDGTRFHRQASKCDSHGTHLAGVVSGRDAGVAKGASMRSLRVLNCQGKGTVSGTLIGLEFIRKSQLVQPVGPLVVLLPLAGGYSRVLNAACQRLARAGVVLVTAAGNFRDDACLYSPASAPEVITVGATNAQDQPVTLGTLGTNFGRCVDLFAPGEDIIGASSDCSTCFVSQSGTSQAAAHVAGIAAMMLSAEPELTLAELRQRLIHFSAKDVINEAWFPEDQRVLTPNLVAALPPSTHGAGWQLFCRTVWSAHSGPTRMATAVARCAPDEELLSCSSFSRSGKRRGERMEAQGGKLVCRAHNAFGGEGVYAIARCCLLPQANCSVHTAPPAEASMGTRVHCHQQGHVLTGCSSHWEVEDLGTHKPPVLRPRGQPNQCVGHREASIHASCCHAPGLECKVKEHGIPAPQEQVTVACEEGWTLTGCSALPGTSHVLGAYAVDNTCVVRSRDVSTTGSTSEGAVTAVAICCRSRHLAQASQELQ
pIC50: −log10 of the molar value. Bridge positions count the residues as written; N and C are the ends. Square brackets hold non-standard residues; d marks the D form. Ends that are not written are not given here. hArg = N=C(N)NCCCC[C@H](N)C(=O)O; Cit = NC(=O)NCCC[C@H](N)C(=O)O; Ahx = NCCCCCC(=O)O; Ava = NCCCCC(=O)O
I'd be grateful if you could share measured pIC50 for these entries.

Q) Endpoint output: pIC50 of Ac-CRLPWNLQRI[Ava]C-NH2 (disulfide 1-12; SMILES CC[C@H](C)[C@@H]1NC(=O)[C@H](CCCNC(=N)N)NC(=O)[C@H](CCC(N)=O)NC(=O)[C@H](CC(C)C)NC(=O)[C@H](CC(N)=O)NC(=O)[C@H](Cc2c[nH]c3ccccc23)NC(=O)[C@@H]2CCCN2C(=O)[C@H](CC(C)C)NC(=O)[C@H](CCCNC(=N)N)NC(=O)[C@@H](NC(C)=O)CSSC[C@@H](C(N)=O)NC(=O)CCCCNC1=O) [Compound 115 (Ac-CRLPWNLQRI-(Ape)-C-NH2)] . Value?
A) < 4.30

Q) Any idea what its pIC50 is? The binder is Ac-CWNLKRIGSQGC-NH2 (disulfide 1-12; SMILES CC[C@H](C)[C@@H]1NC(=O)[C@H](CCCNC(=N)N)NC(=O)[C@H](CCCCN)NC(=O)[C@H](CC(C)C)NC(=O)[C@H](CC(N)=O)NC(=O)[C@H](Cc2c[nH]c3ccccc23)NC(=O)[C@@H](NC(C)=O)CSSC[C@@H](C(N)=O)NC(=O)CNC(=O)[C@H](CCC(N)=O)NC(=O)[C@H](CO)NC(=O)CNC1=O) [Compound 21 (Ac-CWNLKRIGSQGC-NH2)]
A) < 4.30

Q) Item Ac-SGCFIPWNLQ[Cit]IGLPC-NH2 (disulfide 3-16; SMILES CC[C@H](C)[C@@H]1NC(=O)[C@H](CCCNC(N)=O)NC(=O)[C@H](CCC(N)=O)NC(=O)[C@H](CC(C)C)NC(=O)[C@H](CC(N)=O)NC(=O)[C@H](Cc2c[nH]c3ccccc23)NC(=O)[C@@H]2CCCN2C(=O)[C@H]([C@@H](C)CC)NC(=O)[C@H](Cc2ccccc2)NC(=O)[C@@H](NC(=O)CNC(=O)[C@H](CO)NC(C)=O)CSSC[C@@H](C(N)=O)NC(=O)[C@@H]2CCCN2C(=O)[C@H](CC(C)C)NC(=O)CNC1=O) [Compound 36 (Ac-SG-CFIPWNLQ(Cit)IGLPC-NH2)] has what recorded pIC50?
A) < 4.30

Q) Would you kindly share the measured pIC50 for Ac-[dC]RLPWNLQRIGLPC-NH2 (disulfide 1-14; SMILES CC[C@H](C)[C@@H]1NC(=O)[C@H](CCCNC(=N)N)NC(=O)[C@H](CCC(N)=O)NC(=O)[C@H](CC(C)C)NC(=O)[C@H](CC(N)=O)NC(=O)[C@H](Cc2c[nH]c3ccccc23)NC(=O)[C@@H]2CCCN2C(=O)[C@H](CC(C)C)NC(=O)[C@H](CCCNC(=N)N)NC(=O)[C@H](NC(C)=O)CSSC[C@@H](C(N)=O)NC(=O)[C@@H]2CCCN2C(=O)[C@H](CC(C)C)NC(=O)CNC1=O) [Compound 110 (Ac-cRLPWNLQRIGLPC-NH2)] ?
A) < 4.30

Q) # query: pIC50 of entry Ac-CRLPWNLQRI[Ahx]C-NH2 (disulfide 1-12; SMILES CC[C@H](C)[C@@H]1NC(=O)[C@H](CCCNC(=N)N)NC(=O)[C@H](CCC(N)=O)NC(=O)[C@H](CC(C)C)NC(=O)[C@H](CC(N)=O)NC(=O)[C@H](Cc2c[nH]c3ccccc23)NC(=O)[C@@H]2CCCN2C(=O)[C@H](CC(C)C)NC(=O)[C@H](CCCNC(=N)N)NC(=O)[C@@H](NC(C)=O)CSSC[C@@H](C(N)=O)NC(=O)CCCCCNC1=O) [Compound 116 (Ac-CRLPWNLQRI-(Ahx)-C-NH2)]
A) < 4.30

Q) Entry under review: Ac-CRLPWNLQ[hArg]IGLPC-NH2 (disulfide 1-14; SMILES CC[C@H](C)[C@@H]1NC(=O)[C@H](CCCCNC(=N)N)NC(=O)[C@H](CCC(N)=O)NC(=O)[C@H](CC(C)C)NC(=O)[C@H](CC(N)=O)NC(=O)[C@H](Cc2c[nH]c3ccccc23)NC(=O)[C@@H]2CCCN2C(=O)[C@H](CC(C)C)NC(=O)[C@H](CCCNC(=N)N)NC(=O)[C@@H](NC(C)=O)CSSC[C@@H](C(N)=O)NC(=O)[C@@H]2CCCN2C(=O)[C@H](CC(C)C)NC(=O)CNC1=O) [Compound 117 (Ac-CRLPWNLQ(homoR)IGLPC-NH2)] . Reported pIC50?
A) < 4.30

Q) Which measured pIC50 value corresponds to Ac-WCLWNLKRIGSQCWF (disulfide 2-13) [Compound 90 (Ac-WCLWNLKRIGSQCWF)] ?
A) 4.53

Q) Could you tell me which pIC50 is on file for H-WCLWNLKRIGSQCWF-OH (disulfide 2-13; SMILES CC[C@H](C)[C@@H]1NC(=O)[C@H](CCCNC(=N)N)NC(=O)[C@H](CCCCN)NC(=O)[C@H](CC(C)C)NC(=O)[C@H](CC(N)=O)NC(=O)[C@H](Cc2c[nH]c3ccccc23)NC(=O)[C@H](CC(C)C)NC(=O)[C@@H](NC(=O)[C@@H](N)Cc2c[nH]c3ccccc23)CSSC[C@@H](C(=O)N[C@@H](Cc2c[nH]c3ccccc23)C(=O)N[C@@H](Cc2ccccc2)C(=O)O)NC(=O)[C@H](CCC(N)=O)NC(=O)[C@H](CO)NC(=O)CNC1=O) [Compound 66 (WCLWNLKRIGSQCWF)] ?
A) 4.50

Q) GET /values?readout=pIC50&item= Ac-CRLPWNLQRAGLPC-NH2 (disulfide 1-14; SMILES CC(=O)N[C@H]1CSSC[C@@H](C(N)=O)NC(=O)[C@@H]2CCCN2C(=O)[C@H](CC(C)C)NC(=O)CNC(=O)[C@H](C)NC(=O)[C@H](CCCNC(=N)N)NC(=O)[C@H](CCC(N)=O)NC(=O)[C@H](CC(C)C)NC(=O)[C@H](CC(N)=O)NC(=O)[C@H](Cc2c[nH]c3ccccc23)NC(=O)[C@@H]2CCCN2C(=O)[C@H](CC(C)C)NC(=O)[C@H](CCCNC(=N)N)NC1=O) [Compound 71 (Ac-CRLPWNLQRAGLPC-NH2)]
A) < 4.30
